Sourced from patent US20070025902A1

test: Determination of bio-accumulation: urinary clearance pharmacokinetic study in rats; conditions: parent compound recovered in urine after 96 h, oral gavage, 73 micro Moles per kg body weight
# % Recovery (96 h) per entry
Please append the unit to your numeric answer.

Here is how some compounds turned out for % Recovery (96 h).
Q) Any idea what its % Recovery (96 h) is? The compound is `N.O=C(O)C(F)(F)C(F)(F)OC(F)(F)C(F)(F)F`
A) 100%

Q) Which % Recovery (96 h) is listed for `N.O=C(O)C(F)(F)OC(F)(F)OC(F)(F)OC(F)(F)F` ?
A) 100%

Others:
Q) Give the measured % Recovery (96 h) of `N.O=C(O)C(F)(F)C(F)(F)OC(F)(F)C(F)(F)C(F)(F)F` .
A) 82%

Q) Bench note: what % Recovery (96 h) did N.O=C(O)C(F)(F)OC(F)(F)C(F)(OC(F)(F)C(F)(F)C(F)(F)F)C(F)(F)F (stereo not drawn) [Compound C-3, CF3CF2CF2OCF(CF3)CF2OCF2COONH4, reference compound] show?
A) 5%

Q) Recorded % Recovery (96 h) for `N.O=C(O)C(F)(F)OC(F)(F)C(F)(F)OC(F)(F)C(F)(F)F` , please?
A) 99%

Q) Could you share which % Recovery (96 h) value was measured for N.O=C(O)C(F)(F)C(F)(F)C(F)(F)C(F)(F)C(F)(F)OC(F)C(F)(F)F (stereo not drawn) ?
A) 32%
